Reference source: ChEMBL document CHEMBL1140464

Catalogue of Ki readings, one per entry.
Study System: Epidermal growth factor receptor (Homo sapiens, UniProt P00533)
Sequence (P00533 whole entry): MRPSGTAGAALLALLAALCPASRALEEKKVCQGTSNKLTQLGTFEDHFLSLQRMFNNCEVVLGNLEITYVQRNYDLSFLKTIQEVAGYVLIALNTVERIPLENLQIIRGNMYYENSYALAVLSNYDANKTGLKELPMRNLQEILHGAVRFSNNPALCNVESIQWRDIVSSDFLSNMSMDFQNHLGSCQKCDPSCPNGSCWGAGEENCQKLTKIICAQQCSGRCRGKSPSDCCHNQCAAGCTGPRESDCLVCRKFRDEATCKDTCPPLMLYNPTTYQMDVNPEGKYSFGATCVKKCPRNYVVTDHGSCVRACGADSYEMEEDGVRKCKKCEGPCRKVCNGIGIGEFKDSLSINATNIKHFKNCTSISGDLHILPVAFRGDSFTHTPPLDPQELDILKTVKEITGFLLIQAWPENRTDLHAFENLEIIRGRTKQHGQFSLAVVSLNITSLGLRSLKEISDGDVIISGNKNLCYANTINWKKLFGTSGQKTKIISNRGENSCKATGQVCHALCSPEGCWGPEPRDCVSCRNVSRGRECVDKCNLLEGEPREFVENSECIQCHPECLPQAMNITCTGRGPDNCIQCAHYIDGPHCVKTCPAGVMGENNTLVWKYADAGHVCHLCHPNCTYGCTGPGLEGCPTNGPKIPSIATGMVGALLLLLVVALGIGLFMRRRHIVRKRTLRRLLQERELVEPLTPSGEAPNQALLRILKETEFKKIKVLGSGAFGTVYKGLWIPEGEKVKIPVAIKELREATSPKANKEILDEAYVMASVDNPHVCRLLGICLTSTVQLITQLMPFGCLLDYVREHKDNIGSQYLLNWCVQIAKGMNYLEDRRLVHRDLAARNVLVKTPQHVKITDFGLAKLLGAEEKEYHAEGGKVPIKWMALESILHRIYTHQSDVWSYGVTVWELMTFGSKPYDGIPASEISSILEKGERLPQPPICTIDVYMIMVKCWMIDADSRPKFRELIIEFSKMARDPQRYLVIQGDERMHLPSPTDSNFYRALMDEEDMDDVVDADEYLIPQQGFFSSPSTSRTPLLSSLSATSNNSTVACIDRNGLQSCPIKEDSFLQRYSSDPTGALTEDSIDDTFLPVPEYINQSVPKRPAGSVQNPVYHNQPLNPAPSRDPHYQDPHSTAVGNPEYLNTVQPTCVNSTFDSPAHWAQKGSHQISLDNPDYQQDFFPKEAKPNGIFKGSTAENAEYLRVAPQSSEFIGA
Assay Explanation: Inhibition of human recombinant EGFR by fluorescence polarization assay
Write down the numeric answer in µM and omit the unit.

Example compounds with recorded Ki:
N#Cc1cnc2cc(-c3ccc(CN4CCOCC4)cc3)ccc2c1N[C@@H]1C[C@H]1c1ccccc1 ... 0.08
COc1ccc2c(N[C@@H]3C[C@H]3c3ccccc3)c(C#N)cnc2c1 ... 0.18
N#Cc1cnc2ccc(-c3ccc(CN)cc3)cc2c1N[C@@H]1C[C@H]1c1ccccc1 ... 0.04
COc1cc2c(N[C@@H]3C[C@H]3c3ccccc3)c(C#N)cnc2cc1OCCCN1CCN(C)CC1 ... 0.003
COc1cc2ncc(C#N)c(N[C@@H]3C[C@H]3c3ccc(Br)cc3)c2cc1OC ... 0.22

Param readout= Ki; system= Epidermal growth factor receptor (Homo sapiens, UniProt P00533); entry= `COc1cc2ncc(C#N)c(N[C@@H]3C[C@H]3c3ccccc3)c2cc1OCc1ccccc1` ; returns value.
0.12

Let us now turn to `COc1cc2ncc(C#N)c(N[C@@H]3C[C@H]3c3ccc(Oc4ccccc4)cc3)c2cc1OC`
0.08

Let us now turn to `COc1cc2ncc(C#N)c(N[C@@H]3C[C@H]3c3ccccc3)c2cc1OCCCN1CCOCC1`
0.052

Let us now turn to `N#Cc1cnc2ccc(-c3cccc(CN4CCOCC4)c3)cc2c1N[C@@H]1C[C@H]1c1ccccc1`
0.34

###

Listed here: compounds with reported Ki for Tyrosine-protein kinase SYK (Homo sapiens, UniProt P43405).
Write down the numeric answer in nM and omit the unit.

Example compounds with recorded Ki:
COc1cc2c(N[C@@H]3C[C@H]3c3ccccc3)c(C#N)cnc2cc1OCCCc1cccnc1 ... 140
COc1cc2c(N[C@@H]3C[C@H]3c3ccccc3)c(C#N)cnc2cc1OCCCN1CCN(C)CC1 ... 41
COCCOc1cc2ncc(C#N)c(N[C@@H]3C[C@H]3c3ccccc3)c2cc1OC ... 160

Param readout= Ki; system= Tyrosine-protein kinase SYK (Homo sapiens, UniProt P43405); entry= `COc1cc2ncc(C#N)c(N[C@@H]3C[C@H]3c3ccccc3)c2cc1OC` ; returns value.
250

Let us now turn to `N#Cc1cnc2ccc(-c3ccc(CN)cc3)cc2c1N[C@@H]1C[C@H]1c1ccccc1`
450

###

Listed here: compounds with reported Ki for Tyrosine-protein kinase ABL1 (Homo sapiens, UniProt P00519).

Example compounds with recorded Ki:
N#Cc1cnc2ccc(-c3ccc(CN)cc3)cc2c1N[C@@H]1C[C@H]1c1ccccc1 ... 770 nM
COc1cc2c(N[C@@H]3C[C@H]3c3ccccc3)c(C#N)cnc2cc1OCCCN1CCOCC1 ... 200 nM
COc1cc2c(N[C@@H]3C[C@H]3c3ccccc3)c(C#N)cnc2cc1OC1CCN(C)CC1 ... > 10000 nM
COc1cc2ncc(C#N)c(N[C@@H]3C[C@H]3c3ccccc3)c2cc1OCCCN1CCOCC1 ... 1800 nM
N#Cc1cnc2ccc(-c3cccc(CN4CCOCC4)c3)cc2c1N[C@@H]1C[C@H]1c1ccccc1 ... > 10000 nM
COCCOc1cc2ncc(C#N)c(N[C@@H]3C[C@H]3c3ccccc3)c2cc1OC ... 390 nM
COc1cc2c(N[C@@H]3C[C@H]3c3ccccc3)c(C#N)cnc2cc1OCCCN1CCN(C)CC1 ... 44 nM
COc1ccc2c(N[C@@H]3C[C@H]3c3ccccc3)c(C#N)cnc2c1 ... > 10000 nM

# ---- query compound ----
# get_value(readout='Ki', item= `N#Cc1cnc2ccc(-c3ccc(CN4CCOCC4)cc3)cc2c1N[C@@H]1C[C@H]1c1ccccc1` )
> 10000 nM

###

Study System: Proto-oncogene tyrosine-protein kinase Src (Homo sapiens, UniProt P12931)
Sequence (P12931 2-536 limits assumed): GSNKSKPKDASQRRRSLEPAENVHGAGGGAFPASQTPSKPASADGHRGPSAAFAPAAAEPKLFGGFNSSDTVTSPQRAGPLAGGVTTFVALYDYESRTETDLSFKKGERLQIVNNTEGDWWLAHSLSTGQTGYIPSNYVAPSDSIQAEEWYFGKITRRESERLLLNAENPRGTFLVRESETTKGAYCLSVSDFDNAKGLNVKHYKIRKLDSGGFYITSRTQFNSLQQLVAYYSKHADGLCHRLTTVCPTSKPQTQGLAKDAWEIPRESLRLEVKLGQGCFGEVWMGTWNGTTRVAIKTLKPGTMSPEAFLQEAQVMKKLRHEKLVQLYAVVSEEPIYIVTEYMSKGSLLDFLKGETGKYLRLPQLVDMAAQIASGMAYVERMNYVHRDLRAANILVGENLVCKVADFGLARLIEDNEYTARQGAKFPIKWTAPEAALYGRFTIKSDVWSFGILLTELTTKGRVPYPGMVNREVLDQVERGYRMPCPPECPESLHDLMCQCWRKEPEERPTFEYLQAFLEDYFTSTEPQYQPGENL
Measured Parameter: pKi
Scale for pKi: -log10 of concentration given in mol/L; no unit attached.

Example molecules with recorded pKi:
COc1cc2c(N[C@@H]3C[C@H]3c3ccccc3)c(C#N)cnc2cc1OCCCN1CCOCC1 ... 7.35
N#Cc1cnc2ccc(-c3ccc(CN)cc3)cc2c1N[C@@H]1C[C@H]1c1ccccc1 ... 7.07
COc1cc2c(N[C@@H]3C[C@H]3c3ccccc3)c(C#N)cnc2cc1OCCCN1CCN(C)CC1 ... 7.57

# get_value(readout='pKi', item= `COc1cc2c(N[C@@H]3C[C@H]3c3ccccc3)c(C#N)cnc2cc1OCCCc1cccnc1` )
7.31

Let us now turn to `COCCOc1cc2ncc(C#N)c(N[C@@H]3C[C@H]3c3ccccc3)c2cc1OC`
6.96

###

Study System: Epidermal growth factor receptor (Homo sapiens, UniProt P00533)
Assay Explanation: Inhibition of human EGFR autophosphorylation in A431 cells
Measured Parameter: pIC50
Scale for pIC50: -log10 of concentration given in mol/L; no unit attached.

COc1ccc2c(N[C@@H]3C[C@H]3c3ccccc3)c(C#N)cnc2c1 ... 5.59

# get_value(readout='pIC50', item= `COc1cc2c(N[C@@H]3C[C@H]3c3ccccc3)c(C#N)cnc2cc1OCCCN1CCN(C)CC1` )
8.24

Let us now turn to `COc1cc2ncc(C#N)c(N[C@@H]3C[C@H]3c3ccccc3)c2cc1OCc1ccccc1`
5.79

Let us now turn to `COc1cc2c(N[C@@H]3C[C@H]3c3ccccc3)c(C#N)cnc2cc1OC1CCN(C)CC1`
6.44

Let us now turn to `N#Cc1cnc2ccc(-c3cccc(CN4CCOCC4)c3)cc2c1N[C@@H]1C[C@H]1c1ccccc1`
5.28

###

Listed here: compounds with reported Ki for Vascular endothelial growth factor receptor 2 (Homo sapiens).
Write down the numeric answer in nM and omit the unit.

Example compounds with recorded Ki:
COc1cc2ncc(C#N)c(N[C@@H]3C[C@H]3c3ccccc3)c2cc1OCc1ccccc1 ... 2600
COc1cc2c(N[C@@H]3C[C@H]3c3ccccc3)c(C#N)cnc2cc1OCCCN1CCN(C)CC1 ... 300
COc1cc2ncc(C#N)c(N[C@@H]3C[C@H]3c3ccccc3)c2cc1OCCCN1CCOCC1 ... 560

# ---- query compound ----
# get_value(readout='Ki', item= `COc1cc2ncc(C#N)c(N[C@@H]3C[C@H]3c3ccccc3)c2cc1OCCN1CCOCC1` )
150

###

Study System: Epidermal growth factor receptor (Homo sapiens)
Assay Explanation: Inhibition of human recombinant EGFR by fluorescence polarization assay
Catalogue of Ki readings, one per entry.
Write down the numeric answer in µM and omit the unit.

# get_value(readout='Ki', item= `COc1ccc2ncc(C#N)c(N[C@@H]3C[C@H]3c3ccccc3)c2c1` )
0.36

Let us now turn to `COc1cc2ncc(C#N)c(N[C@@H]3C[C@H]3c3ccc(Cl)cc3)c2cc1OC`
0.044

Let us now turn to `COc1cc2ncc(C#N)c(N[C@@H]3C[C@H]3c3ccccc3)c2cc1OCCCc1cccnc1`
0.068

###

Study System: UniProt P00533
Assay Explanation: Inhibition of human recombinant EGFR by fluorescence polarization assay
pKi: −log10 of the molar value.
// no (0) strictly below 7 in pKi; yes (1) otherwise

Worked examples, 3 molecules total:
COc1cc2c(N[C@@H]3C[C@H]3c3ccccc3)c(C#N)cnc2cc1OC1CCN(C)CC1 ... no (0)
COc1cc2ncc(C#N)c(N[C@@H]3C[C@H]3c3ccccc3F)c2cc1OC ... yes (1)
COc1cc2c(N[C@@H]3C[C@H]3c3ccccc3)c(C#N)cnc2cc1OCCCc1cccnc1 ... no (0)

Is it the case that `COc1cc2ncc(C#N)c(N[C@@H]3C[C@H]3c3cccc(Br)c3)c2cc1OC` has pKi reaching or exceeding 7?
yes (1)

###

Study System: Vascular endothelial growth factor receptor 2 (Homo sapiens, UniProt P35968)
Sequence (P35968 whole entry): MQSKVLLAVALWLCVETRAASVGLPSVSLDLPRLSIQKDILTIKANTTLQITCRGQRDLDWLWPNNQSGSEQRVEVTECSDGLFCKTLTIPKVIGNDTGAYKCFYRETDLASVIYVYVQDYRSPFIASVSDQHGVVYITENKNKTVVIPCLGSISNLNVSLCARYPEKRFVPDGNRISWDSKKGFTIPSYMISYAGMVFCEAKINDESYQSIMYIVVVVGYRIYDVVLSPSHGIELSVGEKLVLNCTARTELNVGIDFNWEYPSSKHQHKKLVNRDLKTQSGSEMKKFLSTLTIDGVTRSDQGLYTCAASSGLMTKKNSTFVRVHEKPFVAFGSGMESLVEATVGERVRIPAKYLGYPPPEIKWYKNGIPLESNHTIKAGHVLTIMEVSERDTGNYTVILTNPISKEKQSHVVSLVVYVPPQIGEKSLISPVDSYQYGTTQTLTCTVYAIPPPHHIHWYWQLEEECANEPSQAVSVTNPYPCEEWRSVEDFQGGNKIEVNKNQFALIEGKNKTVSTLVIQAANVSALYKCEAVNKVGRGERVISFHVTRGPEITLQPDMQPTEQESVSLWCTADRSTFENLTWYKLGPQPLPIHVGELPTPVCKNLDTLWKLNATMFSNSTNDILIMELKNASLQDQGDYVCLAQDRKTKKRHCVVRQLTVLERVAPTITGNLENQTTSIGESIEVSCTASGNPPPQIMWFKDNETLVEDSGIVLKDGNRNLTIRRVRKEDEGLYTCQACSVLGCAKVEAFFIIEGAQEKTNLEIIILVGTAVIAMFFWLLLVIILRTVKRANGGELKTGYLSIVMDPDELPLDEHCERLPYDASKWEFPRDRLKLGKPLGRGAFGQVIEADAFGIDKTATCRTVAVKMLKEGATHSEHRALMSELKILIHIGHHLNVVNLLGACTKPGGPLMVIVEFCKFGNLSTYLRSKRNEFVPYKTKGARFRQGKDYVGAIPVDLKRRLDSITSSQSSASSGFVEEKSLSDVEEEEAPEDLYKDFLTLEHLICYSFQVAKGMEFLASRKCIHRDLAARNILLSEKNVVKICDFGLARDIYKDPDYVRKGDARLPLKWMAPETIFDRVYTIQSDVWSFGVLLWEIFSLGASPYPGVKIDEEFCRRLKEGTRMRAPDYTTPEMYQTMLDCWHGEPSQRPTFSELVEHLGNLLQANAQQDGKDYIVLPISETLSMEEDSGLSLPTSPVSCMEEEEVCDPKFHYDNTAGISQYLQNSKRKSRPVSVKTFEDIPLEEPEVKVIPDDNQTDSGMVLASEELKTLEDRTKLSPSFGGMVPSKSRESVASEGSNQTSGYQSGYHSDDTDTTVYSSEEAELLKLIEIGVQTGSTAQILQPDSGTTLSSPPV
Measured Parameter: Ki (nM)
Write down the numeric answer in nM and omit the unit.

Example compounds with recorded Ki:
COc1cc2c(N[C@@H]3C[C@H]3c3ccccc3)c(C#N)cnc2cc1OCCCN1CCOCC1 ... 420
COc1cc2ncc(C#N)c(N[C@@H]3C[C@H]3c3ccccc3)c2cc1OCCCc1cccnc1 ... 650
N#Cc1cnc2ccc(-c3ccc(CN)cc3)cc2c1N[C@@H]1C[C@H]1c1ccccc1 ... 1500

# get_value(readout='Ki', item= `COCCOc1cc2ncc(C#N)c(N[C@@H]3C[C@H]3c3ccccc3)c2cc1OC` )
140

###

Study System: Vascular endothelial growth factor receptor 1 (Homo sapiens, UniProt P17948)
Sequence (P17948 whole entry): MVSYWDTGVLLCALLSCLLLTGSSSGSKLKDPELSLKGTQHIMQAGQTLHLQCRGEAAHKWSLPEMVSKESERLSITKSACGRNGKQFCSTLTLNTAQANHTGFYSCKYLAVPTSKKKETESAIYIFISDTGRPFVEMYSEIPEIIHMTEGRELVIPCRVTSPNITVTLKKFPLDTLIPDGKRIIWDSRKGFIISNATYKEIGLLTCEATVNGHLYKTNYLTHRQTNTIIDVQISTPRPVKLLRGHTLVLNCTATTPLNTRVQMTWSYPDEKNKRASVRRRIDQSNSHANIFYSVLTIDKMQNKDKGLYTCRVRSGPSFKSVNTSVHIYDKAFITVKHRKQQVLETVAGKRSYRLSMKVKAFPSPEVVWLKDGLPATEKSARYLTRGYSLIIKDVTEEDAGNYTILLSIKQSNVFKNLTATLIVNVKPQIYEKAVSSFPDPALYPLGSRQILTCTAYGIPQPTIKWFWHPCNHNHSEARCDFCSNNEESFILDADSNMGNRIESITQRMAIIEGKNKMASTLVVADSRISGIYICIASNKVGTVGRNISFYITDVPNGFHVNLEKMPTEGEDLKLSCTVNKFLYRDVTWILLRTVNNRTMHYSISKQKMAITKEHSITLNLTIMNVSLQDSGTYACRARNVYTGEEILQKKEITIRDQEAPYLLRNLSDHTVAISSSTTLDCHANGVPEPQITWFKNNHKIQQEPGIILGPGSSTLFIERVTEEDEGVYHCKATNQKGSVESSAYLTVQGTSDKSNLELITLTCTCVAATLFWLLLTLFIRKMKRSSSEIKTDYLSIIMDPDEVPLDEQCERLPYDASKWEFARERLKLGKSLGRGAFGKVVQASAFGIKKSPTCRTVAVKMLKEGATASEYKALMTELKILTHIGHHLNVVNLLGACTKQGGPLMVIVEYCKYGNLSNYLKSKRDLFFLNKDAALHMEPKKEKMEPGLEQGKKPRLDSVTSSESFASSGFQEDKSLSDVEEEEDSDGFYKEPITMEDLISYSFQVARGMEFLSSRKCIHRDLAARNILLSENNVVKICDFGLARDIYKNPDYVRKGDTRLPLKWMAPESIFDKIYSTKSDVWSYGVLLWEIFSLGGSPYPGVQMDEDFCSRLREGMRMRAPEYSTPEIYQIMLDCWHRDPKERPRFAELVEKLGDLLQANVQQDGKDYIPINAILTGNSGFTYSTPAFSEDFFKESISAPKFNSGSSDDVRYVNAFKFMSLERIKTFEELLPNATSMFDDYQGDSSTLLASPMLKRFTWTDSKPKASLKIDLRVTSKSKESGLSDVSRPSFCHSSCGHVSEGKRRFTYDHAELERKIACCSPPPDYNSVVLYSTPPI
Measured Parameter: log10(Ki) (log10 of the value in nM)
Give log10 of Ki, with Ki taken in nM.

Example compounds with recorded log10(Ki):
COc1cc2c(N[C@@H]3C[C@H]3c3ccccc3)c(C#N)cnc2cc1OCCCN1CCN(C)CC1 ... 2.04
COc1cc2c(N[C@@H]3C[C@H]3c3ccccc3)c(C#N)cnc2cc1OCCCN1CCOCC1 ... 2.54
COCCOc1cc2ncc(C#N)c(N[C@@H]3C[C@H]3c3ccccc3)c2cc1OC ... 3.46
N#Cc1cnc2cc(-c3ccc(CN4CCOCC4)cc3)ccc2c1N[C@@H]1C[C@H]1c1ccccc1 ... 2.96

# ---- query compound ----
Param readout= log10(Ki); system= Vascular endothelial growth factor receptor 1 (Homo sapiens, UniProt P17948); entry= `N#Cc1cnc2ccc(-c3ccc(CN)cc3)cc2c1N[C@@H]1C[C@H]1c1ccccc1` ; returns value.
3.15
